biological target: UniProtKB Q02763; experiment: Inhibition of Tie-2 phosphorylation by cell based assay
Sequence (Q02763 whole entry): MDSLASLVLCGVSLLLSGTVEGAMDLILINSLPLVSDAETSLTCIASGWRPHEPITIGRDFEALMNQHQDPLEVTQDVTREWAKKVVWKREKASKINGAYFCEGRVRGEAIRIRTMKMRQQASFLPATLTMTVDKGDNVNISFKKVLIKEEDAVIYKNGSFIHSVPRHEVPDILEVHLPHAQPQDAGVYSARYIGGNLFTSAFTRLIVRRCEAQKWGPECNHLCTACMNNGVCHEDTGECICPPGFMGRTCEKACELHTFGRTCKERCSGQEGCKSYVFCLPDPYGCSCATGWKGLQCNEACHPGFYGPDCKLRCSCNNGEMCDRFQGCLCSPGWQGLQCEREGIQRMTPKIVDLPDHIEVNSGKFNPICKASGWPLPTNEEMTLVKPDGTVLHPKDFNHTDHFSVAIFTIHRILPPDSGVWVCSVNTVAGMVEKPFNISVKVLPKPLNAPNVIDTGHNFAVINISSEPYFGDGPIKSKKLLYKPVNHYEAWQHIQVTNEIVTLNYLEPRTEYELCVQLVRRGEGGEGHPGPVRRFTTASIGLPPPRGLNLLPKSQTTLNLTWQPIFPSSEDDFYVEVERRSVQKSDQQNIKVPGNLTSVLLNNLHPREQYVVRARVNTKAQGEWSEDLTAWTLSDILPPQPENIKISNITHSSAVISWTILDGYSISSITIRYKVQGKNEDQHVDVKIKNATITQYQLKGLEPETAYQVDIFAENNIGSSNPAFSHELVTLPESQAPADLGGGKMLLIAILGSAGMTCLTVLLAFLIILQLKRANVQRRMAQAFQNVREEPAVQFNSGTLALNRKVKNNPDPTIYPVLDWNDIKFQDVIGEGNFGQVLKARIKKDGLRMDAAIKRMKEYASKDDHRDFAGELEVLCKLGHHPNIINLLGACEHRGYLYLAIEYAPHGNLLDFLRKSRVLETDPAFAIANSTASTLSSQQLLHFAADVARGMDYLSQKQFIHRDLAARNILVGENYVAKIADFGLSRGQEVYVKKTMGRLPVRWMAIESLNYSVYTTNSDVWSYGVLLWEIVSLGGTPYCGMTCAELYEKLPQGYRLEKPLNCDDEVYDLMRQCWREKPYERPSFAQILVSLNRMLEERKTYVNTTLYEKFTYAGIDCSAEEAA
Test readout: log10 IC50 (log10 of the value in nM)
Hello, just confirming the data are log10 of IC50 with units of nM.

Look over these answered cases.
>>> df
                               given_smiles  measured
0  Cc1cc(NC(=O)Nc2cccc(-c3ncn(C)c3-c3cc4c(N)ncnc4s3)c2)on1      2.53
1     CCn1cnc(-c2ccccc2)c1-c1nc2c(N)ncnc2s1      3.48
2  Cc1ccc(Sc2cccc(-c3ncn(C)c3-c3cc4c(N)ncnc4s3)c2)cc1      3.15

Quick request: log10 IC50 for each listed item, please.
1. CC(C)Cn1cnc(-c2ccccc2)c1-c1nc2c(N)ncnc2s1
2. Cn1cnc(-c2cccc(NC(=O)Nc3cc(C(F)(F)F)ccc3F)c2)c1-c1cc2c(N)ncnc2s1
3. Nc1ncnc2sc(-c3c(-c4ccccc4)ncn3Cc3ccccc3N3CCOCC3)nc12
4. Cn1cnc(-c2ccccc2)c1-c1cc2c(N)ncnc2s1
5. Nc1ncnc2sc(-c3c(-c4ccccc4)ncn3C[C@H]3CCCO3)nc12
6. Cn1cnc(-c2cccc(NC(=O)Nc3ccccc3)c2)c1-c1cc2c(N)ncnc2s1

Result:
1. 2.69
2. 1.85
3. 2.64
4. 3.26
5. 2.57
6. 3.15

----------
Answer each item with its documented solubility.
assay: Aqueous solubility at pH 7
Units required after the number.

In [3]: df
Out[3]:
                               given_smiles  measured
0     CCn1cnc(-c2ccccc2)c1-c1nc2c(N)ncnc2s1    171 µM
1  CC(C)Cn1cnc(-c2ccccc2)c1-c1nc2c(N)ncnc2s1     70 µM

Here is the next item to consider.
response.value for "Cn1cnc(-c2ccccc2)c1-c1nc2c(N)ncnc2s1" (field: solubility) = 160 µM

----------
assay: Half life in rat at 5 mg/kg, po; type: ADME, organism-based; set-up: dose 5 mg/kg, route oral; details: in vivo
Answer each item with its documented half-life.
Give bare numbers, in h.

                           given_smiles  measured
0  Cn1cnc(-c2ccccc2)c1-c1nc2c(N)ncnc2s1       1.6

Here is the next item to consider.
response.value for "Cn1cnc(-c2ccccc2)c1-c1cc2c(N)ncnc2s1" (field: half-life) = 1.8

----------
experiment: Lipophilicity, log D of the compound; settings: octanol/water
Test readout: logD
Give bare numbers.

response.value for "Cn1cnc(-c2ccccc2)c1-c1nc2c(N)ncnc2s1" (field: logD) = 2.7

----------
test: Clearance in rat at 2 mg/kg, iv and 5 mg/kg, po; type: ADME, organism-based; settings: in vivo
Test readout: clearance (mL/min/kg)
Give bare numbers, in mL/min/kg.

In [3]: df
Out[3]:
                           given_smiles  quantity_unit  measured
0  Cn1cnc(-c2ccccc2)c1-c1nc2c(N)ncnc2s1      mL/min/kg      30.1

Here is the next item to consider.
response.value for "Cn1cnc(-c2ccccc2)c1-c1cc2c(N)ncnc2s1" (field: clearance) = 39

----------
molecular target: UniProtKB P35968
Test readout: pIC50
Answers are plain numbers, as −log10 of the molar value.

response.value for "Cn1cnc(-c2ccccc2)c1-c1cc2c(N)ncnc2s1" (field: pIC50) = 4.66
